Just for reference, the NIST ThermoML archive (doi:10.1021/acs.jced.8b00591) is where these values come from.

- Applied conditions: 308.15 K; 101.3 kPa; Liquid; Vibrating tube method
Quantity name: mass density (kg/m3)

CCCC[n+]1ccn(C)c1.O=S(=O)([N-]S(=O)(=O)C(F)(F)F)C(F)(F)F: 1426.43
CCOC(=O)OCC [diethyl carbonate]: 958
CCn1cc[n+](C)c1.O=S(=O)([N-]S(=O)(=O)C(F)(F)F)C(F)(F)F: 1508.3
COC(=O)OC [dimethyl carbonate]: 1050

###

- Applied conditions: 318.15 K; 101.3 kPa; Liquid; Falling or rolling sphere viscometry
Quantity name: viscosity (mPa·s)

CCn1cc[n+](C)c1.O=S(=O)([N-]S(=O)(=O)C(F)(F)F)C(F)(F)F: 17.9
CCCC[n+]1ccn(C)c1.O=S(=O)([N-]S(=O)(=O)C(F)(F)F)C(F)(F)F: 23.33
CCOC(=O)OCC [diethyl carbonate]: 0.589
COC(=O)OC [dimethyl carbonate]: 0.472
